Recorded IC50 values for a group of compounds are listed next.
target: UniProt P00533
Sequence (P00533 whole entry): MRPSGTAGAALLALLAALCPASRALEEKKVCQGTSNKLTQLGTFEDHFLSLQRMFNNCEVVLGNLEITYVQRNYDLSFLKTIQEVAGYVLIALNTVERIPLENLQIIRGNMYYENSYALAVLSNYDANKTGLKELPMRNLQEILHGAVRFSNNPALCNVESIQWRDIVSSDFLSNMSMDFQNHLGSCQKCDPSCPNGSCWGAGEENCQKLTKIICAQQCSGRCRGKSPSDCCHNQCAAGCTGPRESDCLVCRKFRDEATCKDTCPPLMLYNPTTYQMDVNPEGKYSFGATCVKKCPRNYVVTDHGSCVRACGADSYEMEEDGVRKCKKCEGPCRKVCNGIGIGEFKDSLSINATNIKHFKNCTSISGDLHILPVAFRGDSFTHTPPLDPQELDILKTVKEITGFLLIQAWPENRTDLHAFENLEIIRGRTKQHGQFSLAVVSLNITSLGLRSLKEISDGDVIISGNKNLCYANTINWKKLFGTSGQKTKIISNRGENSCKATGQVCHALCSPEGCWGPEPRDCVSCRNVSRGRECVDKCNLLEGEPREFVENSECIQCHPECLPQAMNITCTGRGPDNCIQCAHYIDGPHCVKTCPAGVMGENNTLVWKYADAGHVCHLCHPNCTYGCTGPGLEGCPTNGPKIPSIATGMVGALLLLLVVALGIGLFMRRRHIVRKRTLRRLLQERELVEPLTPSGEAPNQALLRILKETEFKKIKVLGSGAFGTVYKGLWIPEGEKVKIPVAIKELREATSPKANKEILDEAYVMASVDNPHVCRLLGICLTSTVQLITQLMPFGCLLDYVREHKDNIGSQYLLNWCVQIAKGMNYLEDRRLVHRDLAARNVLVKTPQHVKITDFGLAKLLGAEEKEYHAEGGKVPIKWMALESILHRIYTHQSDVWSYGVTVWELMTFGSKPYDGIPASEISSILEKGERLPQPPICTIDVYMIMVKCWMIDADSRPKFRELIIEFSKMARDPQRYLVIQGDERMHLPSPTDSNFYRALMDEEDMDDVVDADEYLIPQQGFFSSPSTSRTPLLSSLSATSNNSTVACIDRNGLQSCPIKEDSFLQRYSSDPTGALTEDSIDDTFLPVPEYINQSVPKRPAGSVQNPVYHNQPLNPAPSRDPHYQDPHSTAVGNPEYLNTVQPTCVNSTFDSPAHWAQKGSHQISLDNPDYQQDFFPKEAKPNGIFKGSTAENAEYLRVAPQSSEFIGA

{"structure.notation": "COc1cc2ncnc(Nc3cc(NC(=O)c4cccc(N(C)C)c4)ccc3C)c2cc1OC", "IC50": "> 33 µM"}
{"structure.notation": "COc1cc2ncnc(Nc3cc(NC(=O)c4cccc(N5CCOCC5)c4)ccc3C)c2cc1OC", "IC50": "> 33 µM"}
{"structure.notation": "COc1cc2ncnc(Nc3cc(NC(=O)c4ccccc4)ccc3C)c2cc1OC", "IC50": "> 33 µM"}
{"structure.notation": "COc1cc2ncnc(Nc3cccc(NC(=O)c4cccc(N(C)C)c4)c3)c2cc1OC", "IC50": "> 33 µM"}

###

Entries with their measured IC50, system Mitogen-activated protein kinase 14 (Homo sapiens):

{"structure.notation": "Cc1ccc(NC(=O)c2ccnc(N3CCOCC3)c2)cc1Nc1ccnc(OC2CCN(C)CC2)n1", "IC50 [nM]": 40}
{"structure.notation": "COc1cc2ncnc(Nc3cc(NC(=O)c4ccccc4)c(Cl)cc3F)c2cc1OC", "IC50 [nM]": 510}
{"structure.notation": "COc1cc2ncnc(Nc3cc(NC(=O)c4ccccc4)ccc3Cl)c2cc1OC", "IC50 [nM]": 80}
